molecular target: BTK (Homo sapiens, UniProt Q06187)
Sequence (Q06187 whole entry): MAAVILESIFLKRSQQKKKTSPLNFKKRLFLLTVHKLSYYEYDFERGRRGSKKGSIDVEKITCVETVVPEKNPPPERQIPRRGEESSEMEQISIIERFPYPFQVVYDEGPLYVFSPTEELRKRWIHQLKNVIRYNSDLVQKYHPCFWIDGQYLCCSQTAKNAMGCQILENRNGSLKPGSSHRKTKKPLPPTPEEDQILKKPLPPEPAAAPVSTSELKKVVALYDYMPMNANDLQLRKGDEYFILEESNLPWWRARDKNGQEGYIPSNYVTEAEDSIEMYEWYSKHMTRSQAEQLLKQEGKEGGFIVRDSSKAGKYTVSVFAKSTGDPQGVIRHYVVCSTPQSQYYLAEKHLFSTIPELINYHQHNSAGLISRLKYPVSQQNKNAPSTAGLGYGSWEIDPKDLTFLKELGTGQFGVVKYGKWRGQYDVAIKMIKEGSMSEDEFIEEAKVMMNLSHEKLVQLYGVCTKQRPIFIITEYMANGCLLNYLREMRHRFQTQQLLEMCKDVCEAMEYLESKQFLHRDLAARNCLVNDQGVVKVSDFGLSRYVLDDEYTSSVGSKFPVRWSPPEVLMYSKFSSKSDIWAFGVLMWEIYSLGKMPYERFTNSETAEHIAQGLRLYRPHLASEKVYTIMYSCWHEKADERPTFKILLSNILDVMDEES
MEASUREMENT_TYPE: IC50

q: Give IC50 only, for Cc1c(Cl)cccc1NCC(=O)N[C@@H]1CCCN(c2ncnc3[nH]ccc23)C1 [Example 272] , using BTK (Homo sapiens, UniProt Q06187) data.
a: < 100 nM

q: Give IC50 only, for O=C(N[C@@H]1CCCN(c2ncnc3[nH]ccc23)C1)[C@@H]1CCc2ccccc2N1 [Example 15] , using BTK (Homo sapiens, UniProt Q06187) data.
a: 1000 to 10000 nM

----------
# pIC50 listing for each entry below
molecular target: BTK (Homo sapiens, UniProt Q06187)
pIC50: −log10 of the molar value.

CC[C@@H](Nc1cc(Cl)cc(Cl)c1)C(=O)N[C@H]1CN(c2ncnc3[nH]ncc23)CC[C@@H]1C [Example 369]: 6.00 to 7.00
O=C(CNc1ccccc1Oc1ccccc1)N[C@@H]1CCCN(c2ncnc3[nH]ccc23)C1 [Example 241]: > 7.00
O=C(CNc1ccccc1Cl)N[C@@H]1CCCN(c2ncnc3[nH]ccc23)C1 [Example 236]: > 7.00
O=C(N[C@@H]1CCCN(c2ncnc3[nH]ccc23)C1)[C@@H](CO)Nc1cc(F)cc(Cl)c1 [Example 424]: 5.00 to 6.00
O=C(CNc1ccccc1S(=O)(=O)N1CCC(C(F)(F)F)CC1)N[C@@H]1CCCN(c2ncnc3[nH]ccc23)C1 [Example 217]: > 7.00
CC1CN(S(=O)(=O)c2ccccc2NCC(=O)N[C@@H]2CCCN(c3ncnc4[nH]ccc34)C2)CC(C)O1 (stereo partly shown) [Example 378]: 6.00 to 7.00
Cc1cccc(NCC(=O)NC2CCCN(c3ncnc4[nH]ccc34)C2)c1C (stereo not shown) [Example 84]: 6.00 to 7.00
CC(C)(C)[C@@H](Nc1cc(F)cc(Cl)c1)C(=O)N[C@@H]1CCCN(c2ncnc3[nH]ccc23)C1 [Example 124]: > 7.00
Cn1nc(-c2ccccc2)cc1NCC(=O)NC1CCCN(c2ncnc3[nH]ccc23)C1 (stereo not shown) [Example 351]: < 5.00
O=C(CNc1ccccc1S(=O)(=O)N1CCCCC1)N[C@@H]1CCCN(c2ncnc3[nH]ccc23)C1 [Example 182]: > 7.00

q: Give pIC50 only, for O=C(CNc1ccccc1N1CCCCC1)N[C@@H]1CCCN(c2ncnc3[nH]ccc23)C1 [Example 290] , using BTK (Homo sapiens, UniProt Q06187) data.
a: 6.00 to 7.00

q: Give pIC50 only, for O=C(CNc1ccccc1OCC(F)(F)F)N[C@@H]1CCCN(c2ncnc3[nH]ccc23)C1 [Example 277] , using BTK (Homo sapiens, UniProt Q06187) data.
a: 6.00 to 7.00

q: Give pIC50 only, for Cc1cccc(NCC(=O)N[C@@H]2CCCN(c3ncnc4[nH]ccc34)C2)c1 [Example 237] , using BTK (Homo sapiens, UniProt Q06187) data.
a: 6.00 to 7.00

----------
# IC50 listing for each entry below
target: BTK (Homo sapiens, UniProt Q06187)

q: Give IC50 only, for O=C(CNc1cccc(-c2cnco2)c1)N[C@@H]1CCCN(c2ncnc3[nH]ccc23)C1 , using BTK (Homo sapiens, UniProt Q06187) data.
a: 1000 to 10000 nM

----------
pIC50: −log10 of the molar value.
These compounds were tested on UniProtKB Q06187; pIC50 is the recorded read-out.

The cases that follow already have their pIC50 on record.
Cc1ccc(NCC(=O)N[C@@H]2CCCN(c3ncnc4[nH]ccc34)C2)c(Cl)c1: 5.00 to 6.00
O=C(CNc1cccc2c1CNC2=O)NC1CCCN(c2ncnc3[nH]ccc23)C1 (stereo not drawn): < 5.00
CCCC[C@@H](Nc1cc(F)cc(Cl)c1)C(=O)N[C@@H]1CCCN(c2ncnc3[nH]ncc23)C1: > 7.00

Consider the record given below.
q: Give the reported value of pIC50 for this record: CNS(=O)(=O)c1ccccc1NCC(=O)N[C@@H]1CCCN(c2ncnc3[nH]ccc23)C1
a: 5.00 to 6.00
